Numbers sourced from ChEMBL document CHEMBL3885861.

Recorded KIDNEY_TOTAL for the following molecules
species: Rattus norvegicus; experiment: Open TG-GATES - Regimen: Single; assay type: toxicity, organism-based, Sprague-Dawley; parameters: regimen Single, gender Male, age 6 weeks; details: in vivo, po, 100 mg/kg, 24 h, tissue Kidney, route gavage, dose level Low
Please give a number only; it is taken to be in g.

1. CNC(=C[N+](=O)[O-])NCCSCc1ccc(CN(C)C)o1 [RANITIDINE] | 2

Now consider a different molecule.
Quickly give me recorded KIDNEY_TOTAL for O=C(OC[C@H]1O[C@@H](OC(=O)c2cc(O)c(O)c(OC(=O)c3cc(O)c(O)c(O)c3)c2)[C@H](OC(=O)c2cc(O)c(O)c(OC(=O)c3cc(O)c(O)c(O)c3)c2)[C@@H](OC(=O)c2cc(O)c(O)c(OC(=O)c3cc(O)c(O)c(O)c3)c2)[C@@H]1OC(=O)c1cc(O)c(O)c(OC(=O)c2cc(O)c(O)c(O)c2)c1)c1cc(O)c(O)c(OC(=O)c2cc(O)c(O)c(O)c2)c1 [TANNIC ACID]
1.8

---

Recorded KIDNEY_TOTAL for the following molecules
species: Rattus norvegicus; assay: Open TG-GATES - Regimen: Daily Repeat; assay type: toxicity, organism-based, Sprague-Dawley; design: regimen Daily Repeat, gender Male, age 6 weeks; conditions: in vivo, po, 100 mg/kg, […], tissue Kidney, route gavage, dose level Low, time 14 day
Please give a number only; it is taken to be in g.

# annotated cases, reported KIDNEY_TOTAL shown
1) CNC(=C[N+](=O)[O-])NCCSCc1ccc(CN(C)C)o1 [RANITIDINE] | 2.4
2) CCOc1ccc(NC(C)=O)cc1 [PHENACETIN] | 2.5

Now consider a different molecule.
Quickly give me recorded KIDNEY_TOTAL for COC(=O)C1=C(C)NC(C)=C(C(=O)OC)C1c1ccccc1[N+](=O)[O-] [NIFEDIPINE]
2.5

---

Recorded BUN for the following compounds
species: Rattus norvegicus; experiment: Open TG-GATES - Regimen: Daily Repeat; assay type: toxicity, organism-based, Sprague-Dawley; set-up: regimen Daily Repeat, gender Male, age 6 weeks; conditions: in vivo, po, 1000 mg/kg, […], tissue Plasma, route gavage, dose level High, time 14 day
Please give a number only; it is taken to be in mg/dL.

1. Cc1nnc2n1-c1ccc(Cl)cc1C(c1ccccc1Cl)=NC2 [TRIAZOLAM] | 17.8
2. COC(=O)C1=C(C)NC(C)=C(C(=O)OC)C1c1ccccc1[N+](=O)[O-] [NIFEDIPINE] | 18.6
3. CN/C(=N/CCSCc1nc[nH]c1C)NC#N [CIMETIDINE] | 19
4. O=C(OC[C@H]1O[C@@H](OC(=O)c2cc(O)c(O)c(OC(=O)c3cc(O)c(O)c(O)c3)c2)[C@H](OC(=O)c2cc(O)c(O)c(OC(=O)c3cc(O)c(O)c(O)c3)c2)[C@@H](OC(=O)c2cc(O)c(O)c(OC(=O)c3cc(O)c(O)c(O)c3)c2)[C@@H]1OC(=O)c1cc(O)c(O)c(OC(=O)c2cc(O)c(O)c(O)c2)c1)c1cc(O)c(O)c(OC(=O)c2cc(O)c(O)c(O)c2)c1 [TANNIC ACID] | 17.8

Now consider a different compound.
Quickly give me recorded BUN for CNC(=C[N+](=O)[O-])NCCSCc1ccc(CN(C)C)o1 [RANITIDINE]
17.6

---

Recorded DBIL for the following compounds
species on record: Rattus norvegicus; assay: Open TG-GATES - Regimen: Daily Repeat; type: toxicity, organism-based, Sprague-Dawley; set-up: regimen Daily Repeat, gender Male, age 6 weeks; conditions: in vivo, po, 100 mg/kg, […], tissue Plasma, route gavage, dose level Low, time 7 day
Please give a number only; it is taken to be in mg/dL.

# annotated cases, reported DBIL shown
1) COC(=O)C1=C(C)NC(C)=C(C(=O)OC)C1c1ccccc1[N+](=O)[O-] | 0.014
2) O=C(OC[C@H]1O[C@@H](OC(=O)c2cc(O)c(O)c(OC(=O)c3cc(O)c(O)c(O)c3)c2)[C@H](OC(=O)c2cc(O)c(O)c(OC(=O)c3cc(O)c(O)c(O)c3)c2)[C@@H](OC(=O)c2cc(O)c(O)c(OC(=O)c3cc(O)c(O)c(O)c3)c2)[C@@H]1OC(=O)c1cc(O)c(O)c(OC(=O)c2cc(O)c(O)c(O)c2)c1)c1cc(O)c(O)c(OC(=O)c2cc(O)c(O)c(O)c2)c1 | 0.004
3) CCOc1ccc(NC(C)=O)cc1 | 0.006
4) CN/C(=N/CCSCc1nc[nH]c1C)NC#N | 0.096
5) Cc1nnc2n1-c1ccc(Cl)cc1C(c1ccccc1Cl)=NC2 | 0.012

Now consider a different compound.
Quickly give me recorded DBIL for CNC(=C[N+](=O)[O-])NCCSCc1ccc(CN(C)C)o1
0.1

---

species: Rattus norvegicus; experiment: Open TG-GATES - Regimen: Daily Repeat; assay type: toxicity, organism-based, Sprague-Dawley; set-up: regimen Daily Repeat, gender Male, age 6 weeks; conditions: in vivo, po, 300 mg/kg, […], tissue Plasma, route gavage, dose level Middle, time 28 day
VALUE KIND: RALB (g/dL)
Please give a number only; it is taken to be in g/dL.

1) CNC(=C[N+](=O)[O-])NCCSCc1ccc(CN(C)C)o1 | 3.4
2) COC(=O)C1=C(C)NC(C)=C(C(=O)OC)C1c1ccccc1[N+](=O)[O-] | 2.7
3) Cc1nnc2n1-c1ccc(Cl)cc1C(c1ccccc1Cl)=NC2 | 2.7
4) O=C(OC[C@H]1O[C@@H](OC(=O)c2cc(O)c(O)c(OC(=O)c3cc(O)c(O)c(O)c3)c2)[C@H](OC(=O)c2cc(O)c(O)c(OC(=O)c3cc(O)c(O)c(O)c3)c2)[C@@H](OC(=O)c2cc(O)c(O)c(OC(=O)c3cc(O)c(O)c(O)c3)c2)[C@@H]1OC(=O)c1cc(O)c(O)c(OC(=O)c2cc(O)c(O)c(O)c2)c1)c1cc(O)c(O)c(OC(=O)c2cc(O)c(O)c(O)c2)c1 | 4

Quickly give me recorded RALB for CCOc1ccc(NC(C)=O)cc1
2.8

Quickly give me recorded RALB for CN/C(=N/CCSCc1nc[nH]c1C)NC#N
3.3

---

species on record: Rattus norvegicus; assay: Open TG-GATES - Regimen: Daily Repeat; format: toxicity, organism-based, Sprague-Dawley; design: regimen Daily Repeat, gender Male, age 6 weeks; details: in vivo, po, 1000 mg/kg, […], tissue Blood, route gavage, dose level High, time 28 day
Recorded MCV for the following compounds
Please give a number only; it is taken to be in fL.

1) Cc1nnc2n1-c1ccc(Cl)cc1C(c1ccccc1Cl)=NC2 [TRIAZOLAM] | 58.2
2) COC(=O)C1=C(C)NC(C)=C(C(=O)OC)C1c1ccccc1[N+](=O)[O-] [NIFEDIPINE] | 61.8
3) CCOc1ccc(NC(C)=O)cc1 [PHENACETIN] | 72.8
4) O=C(OC[C@H]1O[C@@H](OC(=O)c2cc(O)c(O)c(OC(=O)c3cc(O)c(O)c(O)c3)c2)[C@H](OC(=O)c2cc(O)c(O)c(OC(=O)c3cc(O)c(O)c(O)c3)c2)[C@@H](OC(=O)c2cc(O)c(O)c(OC(=O)c3cc(O)c(O)c(O)c3)c2)[C@@H]1OC(=O)c1cc(O)c(O)c(OC(=O)c2cc(O)c(O)c(O)c2)c1)c1cc(O)c(O)c(OC(=O)c2cc(O)c(O)c(O)c2)c1 [TANNIC ACID] | 57.9
5) CNC(=C[N+](=O)[O-])NCCSCc1ccc(CN(C)C)o1 [RANITIDINE] | 56.2

Quickly give me recorded MCV for CN/C(=N/CCSCc1nc[nH]c1C)NC#N [CIMETIDINE]
55.3

---

species on record: Rattus norvegicus; experiment: Open TG-GATES - Regimen: Daily Repeat; format: toxicity, organism-based, Sprague-Dawley; design: regimen Daily Repeat, gender Male, age 6 weeks; settings: in vivo, po, 0 mg/kg, […], tissue Blood, route gavage, dose level Control, time 28 day
VALUE KIND: Ht (%)
Please give a number only; it is taken to be in %.

# annotated cases, reported Ht shown
1. CN1C(=O)CCS(=O)(=O)C1c1ccc(Cl)cc1 (stereo not given) | 42.2
2. CN(C)CCC(c1ccc(Cl)cc1)c1ccccn1 (stereo not given) | 45.7
3. Brc1ccccc1 | 42.4
4. COC(=O)C1=C(C)NC(C)=C(C(=O)OC)C1c1ccccc1[N+](=O)[O-] | 41.3

Now consider a different molecule.
Quickly give me recorded Ht for CNC(=C[N+](=O)[O-])NCCSCc1ccc(CN(C)C)o1
43.7
